- TESTED SYSTEM: Tyrosine-protein kinase JAK1 (Homo sapiens)
- Sequence (P23458 whole entry): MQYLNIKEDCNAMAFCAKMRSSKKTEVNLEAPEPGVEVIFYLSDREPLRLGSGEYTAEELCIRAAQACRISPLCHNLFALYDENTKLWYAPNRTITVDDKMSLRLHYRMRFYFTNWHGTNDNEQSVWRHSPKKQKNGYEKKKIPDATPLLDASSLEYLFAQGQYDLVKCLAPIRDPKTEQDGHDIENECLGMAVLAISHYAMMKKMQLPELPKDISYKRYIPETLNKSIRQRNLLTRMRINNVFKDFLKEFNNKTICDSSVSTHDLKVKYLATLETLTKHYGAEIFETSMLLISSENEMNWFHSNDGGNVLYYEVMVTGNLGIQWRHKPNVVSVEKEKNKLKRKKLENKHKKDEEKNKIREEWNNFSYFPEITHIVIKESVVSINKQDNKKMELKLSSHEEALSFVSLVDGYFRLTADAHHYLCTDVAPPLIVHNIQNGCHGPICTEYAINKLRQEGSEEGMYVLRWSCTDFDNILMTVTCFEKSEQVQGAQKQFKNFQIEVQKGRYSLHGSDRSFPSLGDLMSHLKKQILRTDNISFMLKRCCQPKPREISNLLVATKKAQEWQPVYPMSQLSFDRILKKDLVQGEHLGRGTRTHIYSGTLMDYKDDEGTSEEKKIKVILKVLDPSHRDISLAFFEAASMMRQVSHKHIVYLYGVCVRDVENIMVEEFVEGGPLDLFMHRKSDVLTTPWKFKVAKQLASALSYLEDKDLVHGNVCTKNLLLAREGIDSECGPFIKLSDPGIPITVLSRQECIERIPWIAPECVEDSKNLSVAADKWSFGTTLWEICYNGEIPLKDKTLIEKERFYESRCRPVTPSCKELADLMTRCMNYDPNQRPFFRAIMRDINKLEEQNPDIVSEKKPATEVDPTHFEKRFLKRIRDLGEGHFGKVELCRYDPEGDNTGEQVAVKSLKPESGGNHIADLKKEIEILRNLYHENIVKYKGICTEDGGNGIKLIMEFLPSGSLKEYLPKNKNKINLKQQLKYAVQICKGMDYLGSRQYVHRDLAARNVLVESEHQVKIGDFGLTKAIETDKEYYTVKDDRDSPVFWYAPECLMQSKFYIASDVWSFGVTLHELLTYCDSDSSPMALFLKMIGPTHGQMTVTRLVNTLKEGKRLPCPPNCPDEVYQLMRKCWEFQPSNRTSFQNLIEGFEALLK
pIC50: −log10 of the molar value.
EXPERIMENTAL ENDPOINT: pIC50

Q: Which measured pIC50 value corresponds to N#CCC(CN1CCN(C(=O)c2ccc(C#N)cc2F)CC1)n1cc(-c2ncnc3[nH]ccc23)cn1 (stereo unspecified) ?
Ans: > 8.00
